Origin of the recorded values: patent US9896441B2

Each entry below lists one item and its recorded EC50 value.
Target: Gal4-RORγ-LBD (Homo sapiens)
Construct: expressed in transfected cells
Assay: Gal4-RORγ Luciferase Reporter Assay in HEK-293T Cells
Format: cell-based
Settings: HEK-293 cells, luciferase reporter, in presence of ursolic acid
Measurement kind: EC50

- CCOC(=O)C(C)(C)C[C@H]1C[C@H](S(=O)(=O)c2cccc(C(F)(F)F)c2)c2cc(/C=C(\C)c3c(F)cccc3Cl)ccc2O1 [Example 186M]: < 500 nM
- C/C(=C\c1ccc2c(c1)C(S(=O)(=O)c1cccc(C(F)(F)F)c1)CC(CC(C)(C)C(=O)O)O2)c1c(F)cccc1Cl (stereo not drawn) [Example 186N]: < 500 nM
- COc1cc(S(=O)(=O)N2c3cc(OCc4c(F)cccc4Cl)ccc3C=C(CNC(C)=O)[C@H]2C)ccc1F: < 500 nM
- C/C(=C\c1ccc2c(c1)N(S(=O)(=O)c1cccc(C(F)(F)F)c1)C[C@H](CCNC(=O)OC(C)(C)C)O2)c1c(F)cccc1Cl: 500 to 5000 nM
- COc1cc(S(=O)(=O)N2c3cc(/C=C(\C)c4c(F)cccc4Cl)ccc3C[C@@H](O)[C@H]2C)ccc1F (racemic): < 500 nM
- C/C(=C\c1ccc2c(c1)N(S(=O)(=O)c1cccc(C(F)(F)F)c1)C[C@H](N)C2)c1c(F)cccc1Cl: 500 to 5000 nM

* * *

Each entry below lists one item and its recorded pEC50 value.
Biological target: Gal4-RORγ-LBD (Homo sapiens, UniProt P51449)
Construct: expressed in transfected cells
Assay: Gal4-RORγ Luciferase Reporter Assay in HEK-293T Cells
Assay type: cell-based
Conditions: HEK-293 cells, luciferase reporter, with ursolic acid
pEC50: −log10 of the molar value.
Measurement kind: pEC50

* CCOc1ncc(Cl)cc1S(=O)(=O)N1C[C@H](CCC(=O)O)Oc2ccc(/C=C/c3c(F)cccc3Cl)cc21 [Example 89CX] | 5.30 to 6.30
* COC(=O)CC[C@H]1CN(S(=O)(=O)c2cccc(OC(F)F)c2)c2cc(/C=C(\C)c3c(F)cccc3Cl)c(F)cc2O1 | > 6.30
* COc1cc(S(=O)(=O)N2CCCc3ccc(O[C@@H]4c5ccccc5C[C@H]4C)cc32)ccc1F (relative stereo) [Example 25E] | 5.30 to 6.30
* COC(=O)CC[C@H]1CN(S(=O)(=O)c2cccc(OC(F)F)c2)c2cc(/C=C/c3ccc(C)cc3)ccc2O1 [Example 89BF] | < 5.00
* CC(C)n1cnc(S(=O)(=O)N2C[C@H](CCC(=O)O)Oc3ccc(/C=C/c4c(F)cccc4Cl)cc32)c1 [Example 89DY] | 5.30 to 6.30
* O=C(O)CC[C@H]1CN(S(=O)(=O)c2cccc(C(F)F)c2)c2cc(/C=C/c3c(Cl)cccc3C(F)F)ccc2O1 [Example 89EP] | > 6.30
* COC(=O)CC[C@H]1CN(S(=O)(=O)c2cccc(OC(F)F)c2)c2cc(/C=C/c3c(Cl)cccc3Cl)ccc2O1 [Example 89CS] | > 6.30
* C/C(=C\c1cc(F)c2c(c1)N(S(=O)(=O)c1cccc(C(F)(F)F)c1)C[C@H](CCC(=O)O)O2)c1c(F)cccc1Cl | > 6.30
* CCOc1nn(CC)cc1S(=O)(=O)N1C[C@H](CCC(=O)OC)Oc2ccc(/C=C/c3cccc(OC)n3)cc21 [Example 89T] | < 5.00
* Cc1ccnc(/C=C/c2ccc3c(c2)N(S(=O)(=O)c2cccc(C(F)(F)F)c2)C[C@H](CCC(=O)O)O3)c1F [Example 89CH] | < 5.00
* COC(=O)CC[C@H]1CN(S(=O)(=O)c2cccc(C(F)(F)F)c2)c2cc(/C=C/c3cccc(F)c3Cl)ccc2O1 [Example 89BQ] | 5.30 to 6.30
* O=C(O)CC[C@H]1CN(S(=O)(=O)c2cccc(OC(F)F)c2)c2cc(/C=C/c3c(F)cccc3Cl)ccc2O1 [Example 89A] | 5.30 to 6.30
* O=C(O)CC[C@H]1CN(S(=O)(=O)c2cccc(C(F)(F)F)c2)c2cc(C=C3CCCCC3)ccc2O1 | 5.30 to 6.30
* COC(=O)CC[C@H]1CN(S(=O)(=O)c2cccc(C(F)(F)F)c2)c2c(ccc(/C=C(\C)c3c(F)cccc3Cl)c2F)O1 | 5.30 to 6.30

* * *

Biological target: RORγ-LBD (Homo sapiens, UniProt P51449)
Construct: made in house; host or cells: SF9 cells (baculovirus); used as diluted lysate
Experiment: RORγ-Ligand Binding Domain (LBD) TR-FRET Assay
Format: biochemical
Conditions: RORγ-LBD TR-FRET
Each entry below lists one item and its recorded EC50 value.
Measurement kind: EC50

• CCOc1nn(CC)cc1S(=O)(=O)N1C[C@H](CCC(=O)O)Oc2ccc(/C=C/c3cccc(Cl)n3)cc21 [Example 89AA] = 500 to 5000 nM
• Cc1ccc(F)c(/C=C/c2ccc3c(c2)N(S(=O)(=O)c2cccc(C(F)(F)F)c2)C[C@H](CCC(=O)O)O3)c1 [Example 89CA] = < 500 nM
• C/C(=C\c1ccc2c(c1)N(S(=O)(=O)c1cccc(C(F)(F)F)c1)C[C@H]([C@@H](C)N)O2)c1c(F)cccc1Cl = < 500 nM
• COC(=O)CC[C@H]1CN(S(=O)(=O)c2cccc(C(F)(F)F)c2)c2cc(/C=C(\C)c3c(F)cccc3Cl)c(F)cc2O1 = < 500 nM
• CCOC(=O)[C@@H]1Cc2ccc(OC3CCc4ccccc43)cc2N(S(=O)(=O)c2ccc(F)c(OC)c2)[C@@H]1C (mixture of isomers) = < 500 nM
• O=C(O)CC[C@H]1CN(S(=O)(=O)c2cc(C(F)(F)F)cnc2OCCO)c2cc(/C=C3\CCCOC3)ccc2O1 [Example 95X] = 500 to 5000 nM
• COC(=O)CC[C@H]1CN(S(=O)(=O)c2cc(Cl)cnc2OCCO)c2cc(/C=C(\C)c3c(F)cccc3Cl)ccc2O1 = < 500 nM
• COC(=O)CC[C@H]1CN(S(=O)(=O)c2cc(Cl)cnc2OCCO)c2cc(/C=C/c3c(F)cccc3Cl)ccc2O1 [Example 89AK] = < 500 nM
• COc1cc(S(=O)(=O)N2C[C@H](CC(C)(C)C(=O)O)Cc3ccc(OCc4c(F)cccc4Cl)cc32)ccc1F = < 500 nM

* * *

Biological target: Gal4-RORγ-LBD (Homo sapiens)
Construct: expressed in transfected cells
Sequence (P51449 269-508 limits assumed): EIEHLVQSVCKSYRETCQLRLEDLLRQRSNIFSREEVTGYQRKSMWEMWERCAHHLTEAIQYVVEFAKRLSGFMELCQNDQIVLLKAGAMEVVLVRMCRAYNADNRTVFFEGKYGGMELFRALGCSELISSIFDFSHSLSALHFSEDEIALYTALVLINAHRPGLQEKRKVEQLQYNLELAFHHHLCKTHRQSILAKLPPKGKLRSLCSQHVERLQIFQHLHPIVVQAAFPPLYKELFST
Assay: Gal4-RORγ Luciferase Reporter Assay in HEK-293T Cells
Assay type: cell-based
Details: HEK-293 cells, luciferase reporter, with ursolic acid
Measurement kind: EC50

* COC(=O)CC[C@H]1CN(S(=O)(=O)c2cccc(OC(F)F)c2)c2cc(/C=C/c3ncccn3)ccc2O1 [Example 89H] | > 10 µM
* C/C(=C\c1ccc2c(c1)N(S(=O)(=O)c1cc(C(F)(F)F)cnc1OCCO)C[C@H](CCC(=O)O)O2)c1c(F)cccc1Cl | < 0.5 µM
* COC(=O)CC[C@H]1CN(S(=O)(=O)c2c(OC)nn3c2CCCC3)c2cc(/C=C(\C)c3c(F)cccc3Cl)ccc2O1 [Example 86L] | < 0.5 µM
* C[C@@H]1C/C(=C\c2ccc3c(c2)N(S(=O)(=O)c2cccc(C(F)(F)F)c2)C[C@H](CCC(=O)O)O3)C[C@H](C)C1 [Example 95Z] | 0.5 to 5 µM
* O=C(O)CC[C@H]1CN(S(=O)(=O)c2cccc(OC(F)F)c2)c2cc(/C=C/c3ncccn3)ccc2O1 [Example 89G] | > 10 µM
* COC(=O)CC[C@H]1CN(S(=O)(=O)c2cccc(C(F)(F)F)c2)c2cc(/C=C(\C)c3c(F)cccc3Cl)cc(F)c2O1 | 0.5 to 5 µM
* COC(=O)CC[C@H]1CN(S(=O)(=O)c2cc(Cl)cnc2OCCO)c2cc(/C=C(\C)c3c(F)cccc3Cl)ccc2O1 | > 10 µM
* O=C(O)CC[C@H]1CN(S(=O)(=O)c2cccc(C(F)(F)F)c2)c2cc(/C=C3/CCCOC3)ccc2O1 [Example 95J] | 0.5 to 5 µM
* CC(C)Oc1ncc(C(F)(F)F)cc1S(=O)(=O)N1C[C@H](CCC(=O)O)Oc2ccc(/C=C/c3c(F)cccc3Cl)cc21 [Example 89FK] | > 10 µM
* CCC(=Cc1ccc2c(c1)N(S(=O)(=O)c1cc(C(F)(F)F)cnc1OCCO)C[C@H](CCC(=O)O)O2)CC [Example 95F] | 0.5 to 5 µM
* C/C(=C\c1ccc2c(c1)N(S(=O)(=O)c1cccc(C(F)(F)F)c1)C[C@H](CCC(=O)O)O2)c1ccccc1C(F)(F)F [Example 86AG] | < 0.5 µM
* COC(=O)CC[C@H]1CN(S(=O)(=O)c2cccc(C(F)(F)F)c2)c2cc(/C=C(\C)c3ccccc3Cl)ccc2O1 [Example 86Z] | < 0.5 µM
* C/C(=C\c1ccc2c(c1)N(S(=O)(=O)c1ccc(C)c(C(F)(F)F)c1)C[C@H](CCC(=O)O)O2)c1c(F)cccc1Cl [Example 86AO] | < 0.5 µM
* O=C(O)CC[C@H]1CN(S(=O)(=O)c2cccc(OC(F)F)c2)c2cc(/C=C/c3c(F)cccc3C(F)(F)F)ccc2O1 [Example 89AI] | 0.5 to 5 µM
* C[C@@H](O)COc1ncc(C(F)(F)F)cc1S(=O)(=O)N1C[C@H](CCC(=O)O)Oc2ccc(/C=C/c3c(F)cccc3Cl)cc21 | 0.5 to 5 µM
* CCOc1nn(CC)cc1S(=O)(=O)N1C[C@H](CCC(=O)O)Oc2ccc(/C=C/c3cccnc3)cc21 [Example 89I] | > 10 µM
* CCOc1ncc(C(F)(F)F)cc1S(=O)(=O)N1C[C@H](CCC(=O)OC)Oc2ccc(/C=C/c3c(Cl)cccc3OC)cc21 [Example 89FB] | 0.5 to 5 µM
* Cc1cc(O)cc(C)c1/C=C/c1ccc2c(c1)N(S(=O)(=O)c1cccc(C(F)(F)F)c1)C[C@H](CCC(=O)O)O2 [Example 89BG] | 0.5 to 5 µM
* CCOc1nn(CC)cc1S(=O)(=O)N1C[C@H](CCC(=O)OC)Oc2ccc(/C=C/c3ccccc3OC(F)(F)F)cc21 [Example 89BB] | 0.5 to 5 µM
* CCc1ccccc1/C=C/c1ccc2c(c1)N(S(=O)(=O)c1cccc(OC(F)F)c1)C[C@H](CCC(=O)O)O2 [Example 89AW] | 0.5 to 5 µM
* C/C(=C\c1cc2c(cc1C)O[C@@H](CCC(=O)O)CN2S(=O)(=O)c1cccc(C(F)(F)F)c1)c1c(F)cccc1Cl | > 10 µM
* CCOc1nn(CC)cc1S(=O)(=O)N1C[C@H](CCC(=O)O)Oc2ccc(/C=C/c3ccccc3OC(F)(F)F)cc21 [Example 89BA] | 0.5 to 5 µM
* CCOc1nn(CC)cc1S(=O)(=O)N1C[C@H](CCC(=O)OC)Oc2ccc(/C=C/c3c(Cl)cccc3C(C)(F)F)cc21 [Example 89FF] | 0.5 to 5 µM
* C/C(=C\c1cc2c(cc1F)O[C@@H](CCC(=O)O)CN2S(=O)(=O)c1cccc(OC(F)F)c1)c1c(F)cccc1Cl | 0.5 to 5 µM
* CCOc1nn(CC)cc1S(=O)(=O)N1C[C@H](CCC(=O)OC)Oc2ccc(/C=C(\C)c3c(F)cccc3Cl)cc21 [Example 86J] | < 0.5 µM
* COc1cc(S(=O)(=O)N2CCCc3ccc(OCc4c(C)cccc4Cl)cc32)ccc1F [Example 25W] | < 0.5 µM
* Cc1ccc(/C=C/c2ccc3c(c2)N(S(=O)(=O)c2cccc(OC(F)F)c2)C[C@H](CCC(=O)O)O3)cc1 [Example 89BE] | > 10 µM
